The reader will find reported T/C values listed item by item below.
System: P388 leukemia ip, CD2F1 mice, survival T/C
method_description: NCI In Vivo Anticancer Drug Screen. Data for tumor model P388 Leukemia (intraperitoneal) in CD2F1 (CDF1) mice
particulars: endpoint: median survival time; dose: 240.0 mg/kg/injection; schedule: Q01DX005 (ip); vehicle: saline with Tween-80; higher = longer survival
Toxic doses and inconclusive results are not listed.

Illustrative cases are given below, each with its answer.
CCN(CC)C(C)=S | 104 % of control
CC(=O)OCC1OC(n2cnc3c(=O)n(S(=O)(=O)c4ccc(C)cc4)cnc32)C(OC(C)=O)C1OC(C)=O (centres undefined) | 100 % of control
COC(=O)N1c2ccccc2N(C(=O)OC)c2c1oc1ccccc1c2=O | 101 % of control
COc1ccc2cc(C(=O)c3cc4ccc(OC)cc4oc3=O)c(=O)oc2c1 | 96 % of control
COc1ccc(/C=N\Nc2cc(C)nc3ccc(C4CCCCC4)cc23)c2ccccc12 | 93 % of control
Nc1nnc2nc(C(C(=O)c3ccc(O)cc3O)c3nc4nnc(N)n4[nH]c3=O)c(=O)[nH]n12 | 104 % of control

Sample CS(=O)(=O)N1COC(=O)[C@@H]1c1ccccc1 ; T/C observed: 101 % of control

Entry COc1ccc(OC)c(C(=O)c2cccc(C(=O)c3cc(OC)ccc3OC)n2)c1 ; T/C = 119 % of control

T/C reported for this molecule CCOC(=O)c1c[nH]n(Cc2ccccc2)c1=O : 95 % of control

The measured T/C associated with OC1COC(Sc2ncc[nH]2)C(O)C1O (centres undefined) reads 94 % of control

get_value(item= O=[N+]([O-])c1ccc(C(Cl)Cc2ccc(Cl)cc2)cc1 (centres undefined) , readout=T/C) returns 94 % of control
